Consider the following compounds; for each one, report its Degree of hypoglycemia.
System: C57BL/KsJ-db/dbJcl mice
Test: Evaluation of hypoglycemic action in pathologic mouse
Format: in vivo
Conditions: 10 mg/kg single oral administration, 120 minutes after administration, fasted 20 hours
Quick reminder: number only, in %, skip the unit.

`CSc1ccsc1[C@@H]1C2=C(CNC2=O)N[C@@H]2CCCC[C@H]2N1C(=O)CO` has a reported Degree of hypoglycemia of 41

`O=C1NCC2=C1[C@@H](c1cccc3cccnc13)N(C(=O)CO)[C@@H]1CCCC[C@H]1N2` has a reported Degree of hypoglycemia of 36

`O=C1NCC2=C1[C@@H](c1cccc3ccoc13)N(C(=O)CO)[C@@H]1CCCC[C@H]1N2` has a reported Degree of hypoglycemia of 51

`C=Cc1ccccc1[C@@H]1C2=C(CNC2=O)N[C@@H]2CCCC[C@H]2N1C(=O)CO` has a reported Degree of hypoglycemia of 36

`O=C1NCC2=C1[C@@H](c1cccc3ccsc13)N(C(=O)CO)[C@@H]1CCCC[C@H]1N2` has a reported Degree of hypoglycemia of 23

`COCC(=O)N1[C@@H]2CCCC[C@H]2NC2=C(C(=O)NC2)[C@H]1c1cccc2cc[nH]c12` has a reported Degree of hypoglycemia of 41

Values compiled from patent US7951799B2.
